For each entry below, report its growth inhibition value.
protocol-details: NCI Yeast Anticancer Drug Screen. Data for the cln2 rad14 strain (AID 165);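 further: 0% = growth equal to vehicle treated cultures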
conditions-used: S. cerevisiae cln2 rad14 strain, at 50.0 µM (retest, dose inferred, filed as 5.0), stronger effect = higher value
Compounds without any hit were thinned out: in the full panel of roughly 79,000, 15% have a hit. The source made the active and inactive calls. No stated cut-off is given here; in the data, active means growth inhibition above about 70%; inactive means the rest.

growth inhibition lookup needed for C=CC(C)(O)CCC1C(=C)C(O)CC2C(C)(C)CCCC12C (stereo not drawn) , thanks. 66% (inactive)

# growth inhibition lookup, item CC(=O)Nc1ccc(/C=C(\C#N)c2ccc(C)cc2)cc1 2% (inactive)

What does the record list as growth inhibition for [O-][n+]1c2ccc(O)cc2nc2ccc(Cl)cc21 ? 9% (inactive)
